- target: T1, EsCas13d, nuclease-dead (Eubacterium siraeum, UniProt B0MS50, R295A;H300A;R849A;H854A)
- T1 sequence: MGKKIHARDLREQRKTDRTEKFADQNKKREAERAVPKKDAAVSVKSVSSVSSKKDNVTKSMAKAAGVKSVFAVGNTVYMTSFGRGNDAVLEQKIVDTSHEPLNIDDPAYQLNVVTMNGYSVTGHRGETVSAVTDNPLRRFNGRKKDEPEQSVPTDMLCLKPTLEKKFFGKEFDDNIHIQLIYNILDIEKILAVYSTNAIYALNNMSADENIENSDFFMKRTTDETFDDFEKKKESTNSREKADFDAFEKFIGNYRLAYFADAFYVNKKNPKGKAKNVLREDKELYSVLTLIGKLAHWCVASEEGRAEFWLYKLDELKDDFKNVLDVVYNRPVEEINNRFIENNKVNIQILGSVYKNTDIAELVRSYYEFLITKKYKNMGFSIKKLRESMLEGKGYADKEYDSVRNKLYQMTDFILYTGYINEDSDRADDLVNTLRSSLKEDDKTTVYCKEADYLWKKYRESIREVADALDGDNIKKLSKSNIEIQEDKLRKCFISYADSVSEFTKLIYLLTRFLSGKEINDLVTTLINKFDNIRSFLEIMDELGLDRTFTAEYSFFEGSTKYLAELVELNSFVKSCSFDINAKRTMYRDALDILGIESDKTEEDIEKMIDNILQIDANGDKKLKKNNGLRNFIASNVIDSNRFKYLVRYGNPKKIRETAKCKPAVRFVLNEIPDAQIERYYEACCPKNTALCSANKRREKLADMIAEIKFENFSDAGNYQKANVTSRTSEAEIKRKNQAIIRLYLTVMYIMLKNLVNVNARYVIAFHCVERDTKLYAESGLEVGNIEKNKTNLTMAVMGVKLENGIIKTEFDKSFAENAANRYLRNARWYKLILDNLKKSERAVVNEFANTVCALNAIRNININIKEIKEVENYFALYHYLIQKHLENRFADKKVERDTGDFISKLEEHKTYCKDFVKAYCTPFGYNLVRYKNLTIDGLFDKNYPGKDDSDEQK
- protocol description: crRNA (strand 1, pre-loaded); Mg2+; 40 mM Tris-HCl pH 7.5, 150 mM NaCl, 6 mM MgCl2, 1 mM DTT, 0.1% Tween-20, 0.2 mg/ml BSA; 25 C; 10 min per concentration, then washed
- reported conditions: tags: His6-TwinStrep-SUMO cleaved; N-terminal SNAP kept (SNAP-Surface 488); label: 3' end held by stalled T7 RNA polymerase
pKd: −log10 of the molar value.
result type: pKd

target 2 MT 5'PFS UAU 3'PFS UCU (mixed) RNA 1: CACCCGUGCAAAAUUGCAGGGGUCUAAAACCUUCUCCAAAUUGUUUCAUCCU RNA 2: GGGAAUGGAUCCACAUCUACGAAUUCUAUAGGAUGAAACAAUUUGGAGAAGUCUAGAUCGGAAGAGCACACGU	7.09
target 1 insC 3' of 14,insU 3' of 4 (mixed) RNA 1: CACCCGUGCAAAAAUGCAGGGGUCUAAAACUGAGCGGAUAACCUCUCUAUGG RNA 2: GGGAAUGGAUCCACAUCUACGAAUUCGUACCAUAGAGACGGUUAUCCGCUUCACCGAGAUCGGAAGAGCACACGU	7.37
target 2 MT 5'PFS UAC 3'PFS AAA (mixed) RNA 1: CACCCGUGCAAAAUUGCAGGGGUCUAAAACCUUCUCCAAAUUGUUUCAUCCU RNA 2: GGGAAUGGAUCCACAUCUACGAAUUCUACAGGAUGAAACAAUUUGGAGAAGAAAAGAUCGGAAGAGCACACGU	8.22
target 1 insU 3' of 9,insC 3' of 1 (mixed) RNA 1: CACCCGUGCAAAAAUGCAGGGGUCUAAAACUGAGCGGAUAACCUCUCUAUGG RNA 2: GGGAAUGGAUCCACAUCUACGAAUUCGUACCAUAGAGAGGUUAUUCCGCUCACCCGAGAUCGGAAGAGCACACGU	7.83
target 1 MT 5'PFS UCC 3'PFS UCC (mixed) RNA 1: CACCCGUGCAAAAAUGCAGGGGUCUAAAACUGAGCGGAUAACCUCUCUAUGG RNA 2: GGGAAUGGAUCCACAUCUACGAAUUCUCCCCAUAGAGAGGUUAUCCGCUCAUCCAGAUCGGAAGAGCACACGU	7.92
target 3 C1G,A9G (mixed) RNA 1: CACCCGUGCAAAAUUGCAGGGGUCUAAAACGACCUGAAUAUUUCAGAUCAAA RNA 2: GGGAAUGGAUCCACAUCUACGAAUUCGUUUUUGAUCUGAAAUGUUCAGGUGUGCAGAUCGGAAGAGCACACGU	7.47
target 2 MT 5'PFS GAC 3'PFS UGU (mixed) RNA 1: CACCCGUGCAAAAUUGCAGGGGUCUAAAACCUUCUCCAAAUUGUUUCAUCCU RNA 2: GGGAAUGGAUCCACAUCUACGAAUUCGACAGGAUGAAACAAUUUGGAGAAGUGUAGAUCGGAAGAGCACACGU	7.64
target 1 C4G,G5C (mixed) RNA 1: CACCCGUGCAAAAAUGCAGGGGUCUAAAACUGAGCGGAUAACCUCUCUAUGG RNA 2: GGGAAUGGAUCCACAUCUACGAAUUCGUACCAUAGAGAGGUUAUCCCGUCACCGAGAUCGGAAGAGCACACGU	7.80
target 2 MT 5'PFS CGC 3'PFS UAG (mixed) RNA 1: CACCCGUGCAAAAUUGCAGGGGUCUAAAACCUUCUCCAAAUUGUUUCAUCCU RNA 2: GGGAAUGGAUCCACAUCUACGAAUUCCGCAGGAUGAAACAAUUUGGAGAAGUAGAGAUCGGAAGAGCACACGU	8.48
target 1 insC 3' of 11,insC 3' of 1 (mixed) RNA 1: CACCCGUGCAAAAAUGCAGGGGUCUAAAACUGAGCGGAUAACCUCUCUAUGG RNA 2: GGGAAUGGAUCCACAUCUACGAAUUCGUACCAUAGAGAGGUCUAUCCGCUCACCCGAGAUCGGAAGAGCACACGU	7.58
target 1 MT 5'PFS UAG 3'PFS AUC (mixed) RNA 1: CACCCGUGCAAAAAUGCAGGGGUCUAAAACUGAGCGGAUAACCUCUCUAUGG RNA 2: GGGAAUGGAUCCACAUCUACGAAUUCUAGCCAUAGAGAGGUUAUCCGCUCAAUCAGAUCGGAAGAGCACACGU	7.49
target 2 MT 5'PFS UGU 3'PFS AGC (mixed) RNA 1: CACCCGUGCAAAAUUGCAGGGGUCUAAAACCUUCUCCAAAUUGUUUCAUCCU RNA 2: GGGAAUGGAUCCACAUCUACGAAUUCUGUAGGAUGAAACAAUUUGGAGAAGAGCAGAUCGGAAGAGCACACGU	7.90
target 3 insG 3' of 5,insC 3' of 4 (mixed) RNA 1: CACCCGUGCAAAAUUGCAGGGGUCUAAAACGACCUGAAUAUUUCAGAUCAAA RNA 2: GGGAAUGGAUCCACAUCUACGAAUUCGUUUUUGAUCUGAAAUAUUCAGGCGUCUGCAGAUCGGAAGAGCACACGU	8.12
target 2 MT 5'PFS GUU 3'PFS AGU (mixed) RNA 1: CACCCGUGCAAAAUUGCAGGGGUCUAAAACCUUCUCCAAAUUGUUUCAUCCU RNA 2: GGGAAUGGAUCCACAUCUACGAAUUCGUUAGGAUGAAACAAUUUGGAGAAGAGUAGAUCGGAAGAGCACACGU	8.00
target 3 insA 3' of 6,insG 3' of 5 (mixed) RNA 1: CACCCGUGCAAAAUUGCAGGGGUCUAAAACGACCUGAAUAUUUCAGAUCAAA RNA 2: GGGAAUGGAUCCACAUCUACGAAUUCGUUUUUGAUCUGAAAUAUUCAAGGGUCUGCAGAUCGGAAGAGCACACGU	8.26
